Assayed Target: EGFR Exon19Del (Homo sapiens, UniProt P00533, DEL746-750)
Construct: purchased Carna Bio
Sequence (P00533 with tags, fused parts or gaps DEL746-750 limits assumed): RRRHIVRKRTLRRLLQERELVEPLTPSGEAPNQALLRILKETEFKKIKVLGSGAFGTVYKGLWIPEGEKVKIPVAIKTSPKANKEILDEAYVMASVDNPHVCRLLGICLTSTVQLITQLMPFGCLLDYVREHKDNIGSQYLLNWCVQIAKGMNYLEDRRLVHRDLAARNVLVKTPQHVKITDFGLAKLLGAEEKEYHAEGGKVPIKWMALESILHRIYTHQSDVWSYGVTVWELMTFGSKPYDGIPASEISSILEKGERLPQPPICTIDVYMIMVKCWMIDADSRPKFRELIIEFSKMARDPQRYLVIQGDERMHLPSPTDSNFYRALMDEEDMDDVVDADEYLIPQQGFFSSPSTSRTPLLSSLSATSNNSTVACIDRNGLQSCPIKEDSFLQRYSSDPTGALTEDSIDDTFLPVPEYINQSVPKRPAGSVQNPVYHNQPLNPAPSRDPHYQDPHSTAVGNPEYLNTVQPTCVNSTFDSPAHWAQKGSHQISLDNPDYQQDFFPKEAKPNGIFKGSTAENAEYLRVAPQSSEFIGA
Experiment Notes: Inhibition of EGFR Exon19Del biochemical enzymatic activity (HTRF)
Recorded Conditions: EGFR Exon19Del, 1 mM ATP, 1 h at room temperature, read-out: IC50 @Del19
Readout Name: IC50 (nM)

Consider the worked cases shown below.
Compound: Cc1cc2cc(n1)-c1cnn(C)c1OCCN1CC3CCC(C3)(C1)n1c(nc3ccc(N4CC(N5CCOCC5)C4)cc31)NC2=O (single isomer, unassigned) [Example B48B]
Assayed Target: EGFR Exon19Del (Homo sapiens, UniProt P00533, DEL746-750)
Uom: nM
IC50: 13

Compound: Cc1cc2cc(n1)-c1cnn(C)c1OCCN1CCOCC(C1)n1c(nc3ccccc31)NC2=O (stereo not drawn) [Example B7B]
Assayed Target: EGFR Exon19Del (Homo sapiens, UniProt P00533, DEL746-750)
Uom: nM
IC50: 864

1 = Cc1cc2cc(n1)-c1cnn(C)c1OCCN1CC3CCC(CC3)(C1)n1c(nc3ccc(N4CCC5(CC4)CCN5C)cc31)NC2=O
2 = Cc1cc2cc(n1)-c1cnn(C)c1OCCN1CC3CCC(C3)(C1)n1c(nc3ccc(N4CCOCC4)cc31)NC2=O (single isomer, unassigned) [Example B10A]
Task: For the pair 1 and 2 , which entry has the numerically smaller recorded IC50? Lab log: write the label of the selected item as the result.
Result: 2
(2: 4.6 nM, 1: 17 nM)
